The measurements presented in this section are drawn from patent US6140466.

# Tested on: MBP-Sp1C-C7 (six-finger) (synthetic (Sp1C/Zif268 variant))
# assay summary: EMSA
# setup conditions: 0.1 mM ZnCl2, RT
reported metric: Kd (nM)
Form entry: value (nM) — number only.

Task: Give MBP-Sp1C-C7 (six-finger) (synthetic (Sp1C/Zif268 variant)) Kd for GATGTATGTAGCGTGGGCGGCGTGGGCGTAAGTAATGC (double strand) [C7-C7 site probe]
Output: 1.8

###

# target or test system: MBP-Sp1C (synthetic (human Sp1 variant))
# assay summary: EMSA
# setup conditions: 0.1 mM ZnCl2, RT
reported metric: pKd
Note on units: pKd is unitless, being -log10 of a concentration expressed in mol/L.

Task: Give MBP-Sp1C (synthetic (human Sp1 variant)) pKd for GATGTATGTAGGGGCGGGGTAAGTAATGC (double strand) [Sp1C site probe]
Output: 7.39

###

# Tested on: MBP-Sp1C-C7 (six-finger) (synthetic (Sp1C/Zif268 variant))
# assay summary: EMSA
# setup conditions: 0.1 mM ZnCl2, 100 mM KCl, poly(dI-dC), RT
reported metric: Kd

Task: What measured Kd goes with GATGTATGTAGCGTGGGCGGGGGCGGGGTAAGTAATGC (double strand) [Sp1C-C7 site probe] ?
Output: 0.55 nM

###

Listed here: items and their measured Kd.
# Test system: MBP-Sp1C-C7 (six-finger) (synthetic (Sp1C/Zif268 variant))
# assay summary: EMSA
# setup conditions: 9 bp half-site; 0.1 mM ZnCl2, RT
Form entry: value (nM) — number only.

[[record]]
sequence_chain = "GATGTATGTAGCGTGGGCGTAAGTAATGC (double strand) [C7 site probe]"
measurement_unit = "nM"
endpoint_result = 4.9


Task: Give MBP-Sp1C-C7 (six-finger) (synthetic (Sp1C/Zif268 variant)) Kd for GATGTATGTAGGGGCGGGGTAAGTAATGC (double strand) [Sp1C site probe]
Output: 27.4
